biological target: Cyclin-dependent kinase 5/CDK5 activator 1 (Homo sapiens); assay: Inhibition of recombinant CDK5/p25 expressed in Escherichia coli
Sequence (Q00535 whole entry): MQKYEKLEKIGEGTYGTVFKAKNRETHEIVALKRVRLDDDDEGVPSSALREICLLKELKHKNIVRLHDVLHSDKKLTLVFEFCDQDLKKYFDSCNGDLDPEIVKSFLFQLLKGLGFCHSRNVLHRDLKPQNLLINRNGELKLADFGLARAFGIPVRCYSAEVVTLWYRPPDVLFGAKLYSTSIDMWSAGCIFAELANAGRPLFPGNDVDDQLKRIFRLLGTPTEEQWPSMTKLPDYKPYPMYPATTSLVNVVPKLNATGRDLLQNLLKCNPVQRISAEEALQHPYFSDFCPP
Sequence (Q15078 whole entry, further chain): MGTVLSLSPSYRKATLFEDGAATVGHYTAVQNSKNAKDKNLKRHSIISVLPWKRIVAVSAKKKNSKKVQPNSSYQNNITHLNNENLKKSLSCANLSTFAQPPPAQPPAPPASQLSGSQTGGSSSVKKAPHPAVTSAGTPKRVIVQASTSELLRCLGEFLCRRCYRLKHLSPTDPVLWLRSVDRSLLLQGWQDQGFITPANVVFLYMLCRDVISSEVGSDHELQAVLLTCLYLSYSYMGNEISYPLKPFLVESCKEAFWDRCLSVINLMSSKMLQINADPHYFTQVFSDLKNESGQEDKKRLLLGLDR

INPUT SMILES	INEQUALITY SYMBOL	IC50, µM
O=C1Cc2c([nH]c3ccc(Cl)cc23)-c2ncccc2N1	>	10
COc1ccc2[nH]c3c(c2c1)CC(=O)Nc1ccncc1-3	=	0.4
O=C1Cc2c(n(Cc3ccccc3)c3ccccc23)-c2cnccc2N1	>	10
N#Cc1ccc2c(c1)-c1[nH]c3ccc(C#N)cc3c1CC(=O)N2	=	0.73
CCn1c2c(c3ccccc31)CC(=O)Nc1cccnc1-2	>	10
O=C1Cc2c([nH]c3ccc(O)cc23)-c2ncccc2N1	=	5
O=C1Cc2c([nH]c3ccc(C(=O)O)cc23)-c2ncccc2N1	=	30
O=C1Cc2c(oc3ccc(Cl)cc23)-c2ccccc2N1	>	10
O=C1Cc2c([nH]c3ccc(Cl)cc23)-c2cnccc2N1	=	0.21
O=C1Cc2c([nH]c3ccc(F)cc23)-c2cnccc2N1	=	0.26
N#Cc1cc(I)c2[nH]c3c(c2c1)CC(=O)Nc1cccnc1-3	=	2
O=C1Cc2c([nH]c3cc(Cl)cc(Cl)c23)-c2ncccc2N1	=	100
O=C1Cc2c([nH]c3ccc(C(F)(F)F)cc23)-c2ncccc2N1	=	10
Cn1c2c(c3ccccc31)CC(=O)Nc1cccnc1-2	=	3
N#Cc1ccc2[nH]c3c(c2c1)CC(=O)Nc1ccncc1-3	=	0.032
CCn1c2c(c3ccccc31)CC(=O)Nc1ccncc1-2	>	10
O=C1Cc2c([nH]c3ccc(I)cc23)-c2ncccc2N1	=	6
COc1ccc2[nH]c3c(c2c1)CC(=O)Nc1cccnc1-3	=	4
O=C1Cc2c([nH]c3ccc(Br)cc23)-c2cnccc2N1	=	0.18
Cn1c2c(c3ccccc31)CC(=O)Nc1ccncc1-2	>	10
